Entries and their x-fold (EC50)
# measurement.target: ghrelin receptor (Homo sapiens, UniProt Q92847)
# Sequence (Q92847 whole entry): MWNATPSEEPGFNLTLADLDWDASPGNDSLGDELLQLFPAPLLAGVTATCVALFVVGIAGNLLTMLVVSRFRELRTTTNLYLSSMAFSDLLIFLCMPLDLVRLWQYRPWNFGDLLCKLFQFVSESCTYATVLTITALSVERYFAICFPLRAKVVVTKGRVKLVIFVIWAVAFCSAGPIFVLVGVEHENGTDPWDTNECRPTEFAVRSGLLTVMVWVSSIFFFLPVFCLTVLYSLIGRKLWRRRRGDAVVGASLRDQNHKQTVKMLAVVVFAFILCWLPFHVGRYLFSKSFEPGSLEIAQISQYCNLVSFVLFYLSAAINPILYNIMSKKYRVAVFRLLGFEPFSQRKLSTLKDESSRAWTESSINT
# assay.details: Inositol trisphosphate turnover assay in COS-7 cells transfected with the ghrelin receptor
# Assay type: cell-based
# Set-up: expressed in transfected cells
# details: shift of potency compared to K-(D-1-Nal)-FwLL-NH2; inverse agonistic activity
Where a SMILES comes first, the peptide text is derived from it. [ ]: non-standard residue; d: D form. d1Nal = N[C@H](Cc1cccc2ccccc12)C(=O)O; Cha = N[C@@H](CC1CCCCC1)C(=O)O; Nva = CCC[C@H](N)C(=O)O
Reply with just the number (in x-fold).

Recorded x-fold (EC50), per entry:
CC(C)C[C@H](NC(=O)[C@H](CC(C)C)NC(=O)[C@@H](Cc1c[nH]c2ccccc12)NC(=O)[C@H](Cc1ccc(C(C)(C)C)cc1)NC(=O)[C@@H](Cc1cccc2ccccc12)NC(=O)[C@@H](N)CCCCN)C(N)=O [Peptide 22, K-(D-1-Nal)-(L-tBf)-wLL-NH2]	36.5
CCC[C@H](NC(=O)[C@@H](Cc1cccc2ccccc12)NC(=O)[C@@H](N)CCCCN)C(=O)N[C@H](Cc1c[nH]c2ccccc12)C(=O)N[C@@H](CC(C)C)C(=O)N[C@@H](CC(C)C)C(N)=O [Peptide 24, K-(D-1-Nal)-(L-Nva)-wLL-NH2] (H-K[d1Nal][Nva][dW]LL-NH2)	146.5

Here is the next item to consider.
[ask] Need x-fold (EC50), item CC(C)C[C@H](NC(=O)[C@H](CC(C)C)NC(=O)[C@@H](Cc1c[nH]c2ccccc12)NC(=O)[C@H](CC1CCCCC1)NC(=O)[C@@H](Cc1cccc2ccccc12)NC(=O)[C@@H](N)CCCCN)C(N)=O [Peptide 21, K-(D-1-Nal)-(Cha)-wLL-NH2] (H-K[d1Nal][Cha][dW]LL-NH2)
[reply] 28.5
